# System: Mycobacterium tuberculosis
# measurementProtocol: Antitubercular activity against Mycobacterium tuberculosis H37Rv assessed as bacterial growth inhibition incubated for 7 days by resazurin reduction microplate assay
# Assay type: functional
# protocolConditions: 168 h, time 7 day
Measured MIC, listed per entry for reference.

{"columns": ["smilesRepresentation", "MIC"],
 "data": [
  ["CCNc1nc(SCC)nc2ccccc12", "0.05 µg/mL"],
  ["CCSc1nc(NC)c2cccc(F)c2n1", "0.04 µg/mL"],
  ["CCSc1nc(NC)c2ccc(F)c(F)c2n1", "0.02 µg/mL"],
  ["CCSc1nc(NC)c2ccccc2n1", "0.09 µg/mL"]
]}
